# System: MDA-MB-468
# assay-summary: phospho-S6 immunofluorescence (DAPI-normalised), per-plate z-score; higher = higher phospho-S6 signal (less pathway suppression)
# condition-description: co-treatment: lapatinib 1 uM; 24 h
Counter-ions that a name gives are not always drawn.
Cut-off -0.3 on phospho-S6 immunofluorescence (z-score), inclusive. At or above means y; below means n.

API: above_or_equal(metric=phospho-S6 immunofluorescence (z-score), cutoff=-0.3) for item C[C@H](CCC(=O)O)[C@H]1CC[C@H]2[C@@H]3CC[C@@H]4C[C@H](O)CC[C@]4(C)[C@H]3C[C@H](O)[C@]12C [Deoxycholic acid] (compound 10 µM)
y

API: above_or_equal(metric=phospho-S6 immunofluorescence (z-score), cutoff=-0.3) for item CN1CCc2cc(Cl)c(O)cc2[C@@H](c2ccccc2)C1 (compound 10 µM)
n

API: above_or_equal(metric=phospho-S6 immunofluorescence (z-score), cutoff=-0.3) for item COc1cc(NC(=O)CCN2CCC(OC(=O)Nc3ccccc3-c3ccccc3)CC2)c(Cl)cc1CNC[C@H](O)c1ccc(O)c2[nH]c(=O)ccc12 [Batefenterol] (compound 10 µM)
n

API: above_or_equal(metric=phospho-S6 immunofluorescence (z-score), cutoff=-0.3) for item CN1CC2c3ccccc3Oc3ccc(Cl)cc3C2C1 (centres undefined) [Asenapine (hydrochloride)] (compound 10 µM)
n

API: above_or_equal(metric=phospho-S6 immunofluorescence (z-score), cutoff=-0.3) for item CC(C)c1cc(-c2ccc(F)c3ccccc23)nc(N)n1 (compound 10 µM)
y

API: above_or_equal(metric=phospho-S6 immunofluorescence (z-score), cutoff=-0.3) for item CC(C)(C)NCC(O)c1ccc(O)c(CO)c1 (centres undefined) [Salbutamol (hemisulfate)] (compound 10 µM)
y

API: above_or_equal(metric=phospho-S6 immunofluorescence (z-score), cutoff=-0.3) for item N#Cc1cc(NC(=O)C(=O)O)c(Cl)c(NC(=O)C(=O)O)c1 [Lodoxamide] (compound 10 µM)
y

API: above_or_equal(metric=phospho-S6 immunofluorescence (z-score), cutoff=-0.3) for item CC1OC2(CS1)CN1CCC2CC1 (centres undefined) [Cevimeline (hydrochloride hemihydrate)] (compound 10 µM)
y

API: above_or_equal(metric=phospho-S6 immunofluorescence (z-score), cutoff=-0.3) for item CCC1(c2c[nH]cn2)Cc2ccccc2C1 [Atipamezole] (compound 10 µM)
n

API: above_or_equal(metric=phospho-S6 immunofluorescence (z-score), cutoff=-0.3) for item CC(C)=CCC[C@](C)(O)[C@H]1CC[C@]2(C)[C@@H]1[C@H](O)C[C@@H]1[C@@]3(C)CC[C@H](O)C(C)(C)[C@@H]3[C@@H](O)C[C@]12C [(20S)-Protopanaxatriol] (compound 10 µM)
n

API: above_or_equal(metric=phospho-S6 immunofluorescence (z-score), cutoff=-0.3) for item NCCc1c[nH]cn1 [Histamine] (compound 10 µM)
y

API: above_or_equal(metric=phospho-S6 immunofluorescence (z-score), cutoff=-0.3) for item O=C(Nc1cccc(Cl)c1)c1ccccn1 (compound 10 µM)
y

API: above_or_equal(metric=phospho-S6 immunofluorescence (z-score), cutoff=-0.3) for item CCC(=O)O[C@]1(C(=O)SCF)[C@H](C)C[C@H]2[C@@H]3C[C@H](F)C4=CC(=O)C=C[C@]4(C)[C@@]3(F)[C@@H](O)C[C@@]21C [Fluticasone (propionate)] (compound 10 µM)
y

API: above_or_equal(metric=phospho-S6 immunofluorescence (z-score), cutoff=-0.3) for item COc1cc(C(=O)NCc2ccc(OCCN(C)C)cc2)cc(OC)c1OC [Trimethobenzamide hydrochloride] (compound 10 µM)
y
